biological target: EIF2AK3 (PERK) catalytic domain (amino acids 536-1116) (Homo sapiens, UniProt Q9NZJ5); construct: EIF2AK3 (PERK) catalytic domain (amino acids 536-1116); experiment: PERK in vitro activity assay (isolated), TR-FRET kinase assay; format: biochemical; details: isolated PERK enzyme, 1.5 μM ATP; read-out: Biochemical IC50
pIC50: −log10 of the molar value.
Each entry below carries its reported pIC50.

Solved cases (3 shown):
Cc1cc(NC(=O)C(O)c2cccc(F)c2)ccc1-c1cn(C)c2ncnc(N)c12 (stereo not shown) [Example 11]    7.60 to 9.00
CCc1cccc(C(O)C(=O)Nc2ccc(-c3cn(C)c4nc(C)nc(N)c34)c(F)c2)c1 (stereo not shown) [Example 75]    7.00 to 7.29
Cc1nc(N)c2c(-c3ccc(NC(=O)C(O)c4cc(F)cc(F)c4)cc3F)cn(C)c2n1 (stereo not shown) [Example 83]    7.60 to 9.00

Reported pIC50 for Cc1nc(N)c2c(-c3ccc(NC(=O)C(O)c4cccc(F)c4)cc3Cl)cn(C)c2n1 (stereo not shown) [Example 91] was 6.60 to 7.00

Reported pIC50 for CCc1cc(NC(=O)C(O)c2cccc(F)c2)ccc1-c1cn(C)c2ncnc(N)c12 (stereo not shown) [Example 17] was 7.60 to 9.00

Reported pIC50 for Cc1nc(N)c2c(-c3ccc(NC(=O)C(O)c4cccc(F)c4)cc3F)cn(C)c2n1 (stereo not shown) [Example 79] was 7.00 to 7.29

Reported pIC50 for Cc1nc(N)c2c(-c3ccc(NC(=O)C(O)c4cccc5c4OCC5)cc3C)cn(C)c2n1 (stereo not shown) [Example 63] was 6.60 to 7.00

###

Biological target: EIF2AK3 (PERK) catalytic domain (amino acids 536-1116) (Homo sapiens, UniProt Q9NZJ5)
Construct: EIF2AK3 (PERK) catalytic domain (amino acids 536-1116)
Sequence (Q9NZJ5 536-1116): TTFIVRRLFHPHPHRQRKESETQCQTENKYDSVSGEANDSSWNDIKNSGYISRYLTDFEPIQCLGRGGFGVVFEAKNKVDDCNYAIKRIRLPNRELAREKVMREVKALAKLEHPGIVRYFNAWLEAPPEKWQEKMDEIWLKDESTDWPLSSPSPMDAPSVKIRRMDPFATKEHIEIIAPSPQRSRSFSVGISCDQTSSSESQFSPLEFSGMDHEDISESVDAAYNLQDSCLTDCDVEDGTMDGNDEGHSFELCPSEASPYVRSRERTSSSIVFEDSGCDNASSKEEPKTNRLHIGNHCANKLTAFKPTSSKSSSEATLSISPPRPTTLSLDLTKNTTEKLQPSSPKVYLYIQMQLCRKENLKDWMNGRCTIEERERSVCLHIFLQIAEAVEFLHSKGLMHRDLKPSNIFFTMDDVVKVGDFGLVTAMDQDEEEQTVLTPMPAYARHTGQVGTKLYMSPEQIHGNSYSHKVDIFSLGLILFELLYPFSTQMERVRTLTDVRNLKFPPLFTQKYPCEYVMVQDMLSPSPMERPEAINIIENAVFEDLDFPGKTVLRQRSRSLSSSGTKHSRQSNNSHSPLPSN
Test: PERK in vitro activity assay (isolated), TR-FRET kinase assay
Assay type: biochemical
Settings: isolated PERK enzyme, 1.5 μM ATP; read-out: Biochemical IC50
Description: PERK In Vitro Activity Assay (Isolated): […] Express and purify HIS-SUMO-GCN2 catalytic domain (amino acids 584-1019) from E. coli. […] Monitor the resulting fluorescence in an EnVison® Multilabel reader (PerkinElmer, Waltham, Mass.). […]
pIC50: −log10 of the molar value.
EXPERIMENTAL READOUT: pIC50

Cn1cc(-c2ccc(NC(=O)C(O)c3cccc(F)c3)cc2Cl)c2c(N)ncnc21 (stereo not shown) [Example 14]    7.60 to 9.00
Cc1cccc(C(O)C(=O)Nc2ccc(-c3cn(C)c4nc(C)nc(N)c34)c(C)c2)c1 (stereo not shown)    7.60 to 9.00
Cc1cc(F)cc(C(O)C(=O)Nc2ccc(-c3cn(C)c4nc(C)nc(N)c34)c(F)c2)c1 (stereo not shown) [Example 85]    7.60 to 9.00
Cc1nc(N)c2c(-c3ccc(NC(=O)C(O)c4cccc(F)c4)nc3C)cn(C)c2n1 (stereo not shown) [Example 128]    6.00 to 6.30
Cc1nc(N)c2c(-c3ccc(NC(=O)C(O)c4cccc(Cl)c4)cc3Cl)cn(C)c2n1 (stereo not shown) [Example 99]    7.60 to 9.00
Cc1nc(N)c2c(-c3ccc(NC(=O)C(O)c4cccc(F)c4)cc3C)cn(C)c2n1 (single isomer, unassigned) [Example 1]    7.60 to 9.00
Cc1nc(N)c2c(-c3ccc(NC(=O)C(O)c4cc(F)cc(C(F)(F)F)c4)c(F)c3F)cn(C)c2n1 (single isomer, unassigned) [Example 115]    7.60 to 9.00
Cc1cc(NC(=O)C(O)c2ccccc2)ccc1-c1cn(C)c2ncnc(N)c12 (stereo not shown) [Example 5]    7.60 to 9.00
Cc1cc(NC(=O)Cc2cccc(C(C)C)c2)ccc1-c1cn(C)c2ncnc(N)c12    7.60 to 9.00
Cc1cc(NC(=O)CC2CCCC2)ccc1-c1cn(C)c2ncnc(N)c12    6.60 to 7.00

Reported pIC50 for Cc1cc(NC(=O)C(O)c2cccc(C(F)(F)F)c2)ccc1-c1cn(C)c2ncnc(N)c12 (stereo not shown) [Example 48] was 7.60 to 9.00

Reported pIC50 for Cc1cccc(CC(=O)Nc2ccc(-c3cn(C)c4nc(C)nc(N)c34)c(C)c2)n1 was 7.30 to 7.59

Reported pIC50 for Cc1nc(N)c2c(-c3ccc(NC(=O)C(O)c4cc(F)cc(F)c4)c(F)c3F)cn(C)c2n1 (single isomer, unassigned) [Example 113] was 7.60 to 9.00

FYI, the data here is from patent US20220356186A1.
